tested on: Escherichia coli TOP10; test: shrunken log2 fold change of peptide-encoding DNA abundance (4.5 h post-induction vs induction); higher = less antimicrobial activity (less host growth inhibition); conditions: time post-induction: 4.5 h; library: site-saturation at positions 5, 18, 19, 20;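 note: peptides expressed intracellularly from a pBAD plasmid library in pooled LB shake-flask culture, induced with 0.3% L-arabinose, DNA abundance read by NGS, three biological replicates, DESeq2 with apeglm shrinkage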
Experimental readout: shrunken log2 fold change
Please give only the number in your answer, with no unit.

Completed entries (count: 5):
RRIRCRPPRLPRPRPRPMVQPRP :: -0.292
RRIRDRPPRLPRPRPRPTKQPRP :: 0.188
RRIRERPPRLPRPRPRPTCNPRP :: -0.315
RRIRVRPPRLPRPRPRPYWYPRP :: -0.964
RRIRWRPPRLPRPRPRPSEFPRP :: 0.144

*Q* // query shrunken log2 fold change value for entry RRIRLRPPRLPRPRPRPQQVPRP
*A* 0.107

*Q* // query shrunken log2 fold change value for entry RRIRSRPPRLPRPRPRPNWIPRP
*A* -0.659

*Q* // query shrunken log2 fold change value for entry RRIRARPPRLPRPRPRPWSTPRP
*A* 0.0839

*Q* // query shrunken log2 fold change value for entry RRIRSRPPRLPRPRPRPCADPRP
*A* 0.0939

*Q* // query shrunken log2 fold change value for entry RRIRSRPPRLPRPRPRPFNYPRP
*A* 0.0477

*Q* // query shrunken log2 fold change value for entry RRIRERPPRLPRPRPRPNNSPRP
*A* -0.693

*Q* // query shrunken log2 fold change value for entry RRIRKRPPRLPRPRPRPYFEPRP
*A* -0.584

*Q* // query shrunken log2 fold change value for entry RRIRTRPPRLPRPRPRPTAPPRP
*A* 0.159

*Q* // query shrunken log2 fold change value for entry RRIRFRPPRLPRPRPRPKDYPRP
*A* -0.788

*Q* // query shrunken log2 fold change value for entry RRIRARPPRLPRPRPRPLGQPRP
*A* 0.432
